Origin of the recorded values: PubChem BioAssay AID1845210

- System: NCI-H226 complex tumor spheroids, viability
- measurement description: Anticancer human tumor NCI-H226 cell line growth inhibition;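 also: spheroids exposed to compound for 7 days; 100% = DMSO vehicle control viability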
- test context: second compound 0.00949 µM; first compound 10 µM; active compounds read low
quantity name: viability, T/C (%)

1. [2H]c1nc(C)nc([2H])c1-c1cc(NC[C@@H](C)c2cccc3c(C(=O)NC)ccnc23)ncn1 + CC[C@@]1(O)C(=O)OCc2c1cc1n(c2=O)Cc2cc3c(CN(C)C)c(O)ccc3nc2-1    88.5
2. COc1ccc([C@@H](O)c2cc(-c3ncnc4cc(N5CCOCC5)ccc34)c(F)cc2Cl)nn1 + CC[C@@]1(O)C(=O)OCc2c1cc1n(c2=O)Cc2cc3c(CN(C)C)c(O)ccc3nc2-1    35.2
3. COc1cc(C)[nH]c(=O)c1CN1CCc2c(Cl)cc(C(OC)C3COC3)c(Cl)c2C1=O (stereo unspecified) + CC[C@@]1(O)C(=O)OCc2c1cc1n(c2=O)Cc2cc3c(CN(C)C)c(O)ccc3nc2-1    97.3
4. CC(C)n1c(=O)n(C)c2cnc3cc(F)c(-c4ccc(OCCCN5CCCCC5)nc4)cc3c21 + CC[C@@]1(O)C(=O)OCc2c1cc1n(c2=O)Cc2cc3c(CN(C)C)c(O)ccc3nc2-1    17.9
5. CC1COCCN1c1cc(-c2ccnn2C)c2ccnc(-c3ccn[nH]3)c2n1 (stereo unspecified) + CC[C@@]1(O)C(=O)OCc2c1cc1n(c2=O)Cc2cc3c(CN(C)C)c(O)ccc3nc2-1    33.4
6. Cc1cc(C)c(CNC(=O)c2cc(-c3ccc(CN4CCOCC4)cc3)cc3c2cnn3C2CCCC2)c(=O)[nH]1 + CC[C@@]1(O)C(=O)OCc2c1cc1n(c2=O)Cc2cc3c(CN(C)C)c(O)ccc3nc2-1    96.3
